pKi: −log10 of the molar value.
# merged literature set: pKi with UniProt:P00742

Reference set (2 entries):
Smiles Entry: N=C(N)c1ccc(CNC(=O)[C@H](CCC2CCNCC2)NC(=O)[C@@H](CCC2CCN(C(=O)C3CC3)CC2)NS(=O)(=O)Cc2ccccc2)cc1
pKi: < 6.00

Smiles Entry: NC[C@H]1CC[C@H](C(=O)N[C@@H](Cc2ccccc2)c2nc(-c3ccc4c(N)n[nH]c4c3)c[nH]2)CC1.O=C(O)C(F)(F)F
pKi: < 5.09

Determine reported pKi for "COC(=O)[C@@H](Cc1cnc[nH]1)NC(=O)CN1CCN(S(=O)(=O)c2cc3ccc(Cl)cc3s2)CC1=O" ; test system: UniProt:P00742.
< 5.92

Determine reported pKi for "CCOc1ccc(NC(=O)c2cc(C)ccc2NC(=O)c2sc3ccccc3c2Cl)cc1" ; test system: UniProt:P00742.
< 5.30

Determine reported pKi for "Cc1cccc(NC(=O)c2sc3ccccc3c2Cl)c1C(=O)Nc1ccc(Cl)cc1" ; test system: UniProt:P00742.
< 5.30

----------
# merged literature set: Ki with Coagulation factor X (Homo sapiens, UniProt P00742)
The reply should contain only the number, in nM.

Molecule: COc1cc(Oc2nc(Oc3cccc(C(=O)N(C)C)c3)c(F)c(C)c2F)cc(C(=N)N)c1
Measurement Target: Coagulation factor X (Homo sapiens, UniProt P00742)
Ki / nM: 2700
//
Molecule: NCCC(=O)Nc1cccc(S(=O)(=O)N[C@@H](Cc2ccc(CN)cc2)C(=O)N2CCC(CCN)CC2)c1
Measurement Target: Coagulation factor X (Homo sapiens, UniProt P00742)
Ki / nM: 430000
//
Molecule: NCc1cccc(-n2nnnc2C(=O)Nc2ccc(-c3ccccc3S(N)(=O)=O)cc2)c1
Measurement Target: Coagulation factor X (Homo sapiens, UniProt P00742)
Ki / nM: 13
//
Molecule: Cc1c(F)c(Oc2cccc(C(=N)N)c2)nc(Oc2cccc(C(=O)N(C)C)c2)c1F
Measurement Target: Coagulation factor X (Homo sapiens, UniProt P00742)
Ki / nM: 80
//
Molecule: CCS(=O)(=O)c1ccc2cc1CNC(=O)[C@H](Nc1ccc3c(N)nccc3c1)c1ccc(cc1)CCCC(=O)N2
Measurement Target: Coagulation factor X (Homo sapiens, UniProt P00742)
Ki / nM: 3200
//
Molecule: Nc1cc(C2=NOC(CNC=O)(C(=O)Nc3ccc(-c4ccccc4S(N)(=O)=O)cn3)C2)ccc1Cl (racemic)
Measurement Target: Coagulation factor X (Homo sapiens, UniProt P00742)
Ki / nM: 15
//
Molecule: COc1ccc(-n2nc(C(N)=O)c3c2C(=O)N(c2ccc(C(C)(C)CN4CCCC4)cc2)CC3)cc1
Measurement Target: Coagulation factor X (Homo sapiens, UniProt P00742)
Ki / nM: 0.05

Next molecule, please.
Using the record for Cc1nn(C)c(CNC(C)C)c1NC(=O)OCC(Oc1cccc2sc(C(=N)N)cc12)c1ccccc1 (stereo not given) , state its measured Ki.
1630

----------
# merged literature set: pKi with Coagulation factor X (Homo sapiens)
Friendly reminder that pKi comes from taking -log10 of the concentration in mol/L.

Reference set (2 entries):
Compound: COC(=O)CC1(C(=O)Nc2ccc(-c3ccccc3S(N)(=O)=O)nc2)CC(c2cccc(C(=N)N)c2)=NO1 (centres undefined)
Attribute Measured: pKi
Meas Value: 7.72

Compound: COc1ccc(-n2nnnc2C(=O)Nc2ccc(-c3ccccc3S(N)(=O)=O)cc2)cc1
Attribute Measured: pKi
Meas Value: 8.10

Next compound, please.
Using the record for "CNc1nn(-c2ccc(OC)cc2)c2c1CCN(c1ccc(-c3ccccc3CN3CC[C@@H](O)C3)cc1)C2=O" , state its measured pKi.
8.77
